experiment: Tmax in Sprague-Dawley rat at 2 mg/kg, po; format: ADME, organism-based; parameters: dose 2 mg/kg, route oral; details: in vivo
quantity-name: Tmax (h)
Please state the figure in h; there is no need to write the unit.

Which Tmax value belongs to CCCn1c(=O)c2[nH]c(-c3cnn(Cc4noc(-c5ccc(C(F)(F)F)cc5)n4)c3)nc2n(CC)c1=O ? 6

---

species: Homo sapiens; assay: Selectivity for human recombinant adenosine A2B receptor over human recombinant adenosine A3 receptor
Provide the recorded Ratio Ki for the entries that follow.
Response field accepts a number only; no unit should be typed.

Which Ratio Ki value belongs to CCCCn1c(=O)c2[nH]c(-c3cnn(Cc4cccc(C(F)(F)F)c4)c3)nc2n(C)c1=O ? 41

Which Ratio Ki value belongs to Cn1c(=O)n(CC2CC2)c(=O)c2[nH]c(-c3cnn(Cc4cccc(F)c4)c3)nc21 ? 5

Which Ratio Ki value belongs to CCCn1c(=O)c2[nH]c(-c3cnn(Cc4cccc(C(F)(F)F)c4)c3)nc2n(CC)c1=O ? 48

Which Ratio Ki value belongs to CC(C)Cn1c(=O)c2[nH]c(-c3cnn(Cc4cccc(F)c4)c3)nc2n(C)c1=O ? 2

Which Ratio Ki value belongs to CCn1c(=O)n(CC2CC2)c(=O)c2[nH]c(-c3cnn(Cc4cccc(C(F)(F)F)c4)c3)nc21 ? 15

---

molecular target: Adenosine receptor A1 (Homo sapiens, UniProt P30542); assay: Displacement of [3H]CPX from human recombinant adenosine A1 receptor expressed in CHO cells
Sequence (P30542 whole entry): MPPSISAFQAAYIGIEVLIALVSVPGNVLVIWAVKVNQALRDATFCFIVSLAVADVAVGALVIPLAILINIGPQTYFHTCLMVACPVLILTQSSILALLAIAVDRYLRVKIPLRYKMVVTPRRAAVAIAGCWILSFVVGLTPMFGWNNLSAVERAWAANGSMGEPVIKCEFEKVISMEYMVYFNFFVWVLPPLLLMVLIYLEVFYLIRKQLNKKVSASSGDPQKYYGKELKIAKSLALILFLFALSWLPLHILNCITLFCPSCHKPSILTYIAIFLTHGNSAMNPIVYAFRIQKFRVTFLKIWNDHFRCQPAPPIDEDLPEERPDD
Provide the recorded log10 of Ki for the entries that follow.
On a log10 scale: recorded Ki, unit nM.

Which log10 of Ki value belongs to CCCn1c(=O)c2[nH]c(-c3cn[nH]c3)nc2n(CC)c1=O ? 2.25

Which log10 of Ki value belongs to CCn1c(=O)n(CC2CC2)c(=O)c2[nH]c(-c3cnn(Cc4ccccc4)c3)nc21 ? 2.50

Which log10 of Ki value belongs to CCCn1c(=O)c2[nH]c(-c3cnn(Cc4cc(-c5ccc(C(F)(F)F)cc5)on4)c3)nc2n(CC)c1=O ? 3.34

Which log10 of Ki value belongs to CCn1c(=O)c2[nH]c(-c3cnn(Cc4ccccc4)c3)nc2n(C)c1=O ? 2.41

Which log10 of Ki value belongs to CCCn1c(=O)c2[nH]c(-c3cnn(Cc4ccc[n+]([O-])c4)c3)nc2n(CC)c1=O ? 3.05

Which log10 of Ki value belongs to CCn1c(=O)n(CC(C)C)c(=O)c2[nH]c(-c3cnn(Cc4ccc(C(F)(F)F)nc4)c3)nc21 ? 3.56

Which log10 of Ki value belongs to CC(C)Cn1c(=O)c2[nH]c(-c3cnn(Cc4cccc(F)c4)c3)nc2n(C)c1=O ? 2.55

Which log10 of Ki value belongs to CC(C)Cn1c(=O)c2[nH]c(-c3cnn(Cc4ccccc4)c3)nc2n(C)c1=O ? 2.54

Which log10 of Ki value belongs to CCCn1c(=O)c2[nH]c(-c3cnn(Cc4cccnc4)c3)nc2n(CC)c1=O ? 2.72

Which log10 of Ki value belongs to CC(C)Cn1c(=O)c2[nH]c(-c3cn[nH]c3)nc2n(C)c1=O ? 2.58

Which log10 of Ki value belongs to CCn1c(=O)n(CC(C)C)c(=O)c2[nH]c(-c3cnn(Cc4cccc(C(F)(F)F)c4)c3)nc21 ? 2.80

Which log10 of Ki value belongs to CCn1c(=O)n(CC2CC2)c(=O)c2[nH]c(-c3cnn(Cc4ccc(C(F)(F)F)nc4)c3)nc21 ? 3.11

Which log10 of Ki value belongs to CCn1c(=O)n(CC2CC2)c(=O)c2[nH]c(-c3cn[nH]c3)nc21 ? 1.88

Which log10 of Ki value belongs to CCCn1c(=O)c2[nH]c(-c3cnn(Cc4cccc(C(F)(F)F)c4)c3)nc2n(CC)c1=O ? 3.29

Which log10 of Ki value belongs to Cn1c(=O)n(CC2CC2)c(=O)c2[nH]c(-c3cnn(Cc4ccccc4)c3)nc21 ? 2.19

Which log10 of Ki value belongs to CCCn1c(=O)c2[nH]c(-c3cnn(Cc4nc(-c5ccc(Cl)cc5)no4)c3)nc2n(CC)c1=O ? 2.96

Which log10 of Ki value belongs to Cn1c(=O)n(CC2CC2)c(=O)c2[nH]c(-c3cnn(Cc4cccc(F)c4)c3)nc21 ? 2.27

Which log10 of Ki value belongs to CCCn1c(=O)c2[nH]c(-c3cnn(Cc4cccc(F)c4)c3)nc2n(CC)c1=O ? 3.08

---

Provide the recorded pKi for the entries that follow.
molecular target: Adenosine receptor A2b (Homo sapiens, UniProt P29275); experiment: Displacement of [3H]ZM-241385 from human recombinant adenosine A2B receptor expressed in HEK293 cells
Sequence (P29275 whole entry): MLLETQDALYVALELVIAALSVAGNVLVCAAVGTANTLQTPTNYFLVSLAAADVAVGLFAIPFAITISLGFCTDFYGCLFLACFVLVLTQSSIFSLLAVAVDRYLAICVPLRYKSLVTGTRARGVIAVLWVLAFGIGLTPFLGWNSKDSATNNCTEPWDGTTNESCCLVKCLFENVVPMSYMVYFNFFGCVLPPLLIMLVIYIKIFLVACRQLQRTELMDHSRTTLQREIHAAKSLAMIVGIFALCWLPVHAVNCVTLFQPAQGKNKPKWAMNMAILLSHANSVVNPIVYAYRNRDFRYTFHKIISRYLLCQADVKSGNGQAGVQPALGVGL
In textbook form, pKi equals minus log to base ten of the concentration in mol/L.

Which pKi value belongs to CCn1c(=O)n(CC2CC2)c(=O)c2[nH]c(-c3cnn(Cc4ccccc4)c3)nc21 ? 7.57

Which pKi value belongs to CCCn1c(=O)c2[nH]c(-c3cnn(Cc4cccc(F)c4)c3)nc2n(CC)c1=O ? 7.46

Which pKi value belongs to CCCn1c(=O)c2[nH]c(-c3cnn(Cc4ccc(C)nc4)c3)nc2n(CC)c1=O ? 7.35

Which pKi value belongs to CC(C)Cn1c(=O)c2[nH]c(-c3cnn(Cc4ccccc4)c3)nc2n(C)c1=O ? 7.68

Which pKi value belongs to CCn1c(=O)c2[nH]c(-c3cnn(Cc4cccc(C(F)(F)F)c4)c3)nc2n(C)c1=O ? 8.22

Which pKi value belongs to CCCn1c(=O)c2[nH]c(-c3cnn(Cc4ccccn4)c3)nc2n(CC)c1=O ? 7.34

Which pKi value belongs to CCCCn1c(=O)c2[nH]c(-c3cnn(Cc4cccc(C(F)(F)F)c4)c3)nc2n(C)c1=O ? 7.96

Which pKi value belongs to CCn1c(=O)n(CC(C)C)c(=O)c2[nH]c(-c3cnn(Cc4cccc(C(F)(F)F)c4)c3)nc21 ? 7.96

Which pKi value belongs to CCCn1c(=O)c2[nH]c(-c3cnn(Cc4nc(-c5ccc(Cl)cc5)no4)c3)nc2n(CC)c1=O ? 7.80

---

experiment: Half life in Sprague-Dawley rat at 2 mg/kg, po; assay type: ADME, organism-based; parameters: dose 2 mg/kg, route oral; settings: in vivo
quantity-name: half-life (h)
Please state the figure in h; there is no need to write the unit.

Which half-life value belongs to CCCn1c(=O)c2[nH]c(-c3cnn(Cc4ccc(C(F)(F)F)nc4)c3)nc2n(CC)c1=O ? 9.7

Which half-life value belongs to CCCn1c(=O)c2[nH]c(-c3cnn(Cc4cccc(C(F)(F)F)c4)c3)nc2n(CC)c1=O [GS 6201] ? 4.25

---

molecular target: Adenosine receptor A3 (Homo sapiens, UniProt P0DMS8); assay: Displacement of [125I]ABMECA from human recombinant adenosine A3 receptor expressed in CHO cells
Sequence (P0DMS8 whole entry): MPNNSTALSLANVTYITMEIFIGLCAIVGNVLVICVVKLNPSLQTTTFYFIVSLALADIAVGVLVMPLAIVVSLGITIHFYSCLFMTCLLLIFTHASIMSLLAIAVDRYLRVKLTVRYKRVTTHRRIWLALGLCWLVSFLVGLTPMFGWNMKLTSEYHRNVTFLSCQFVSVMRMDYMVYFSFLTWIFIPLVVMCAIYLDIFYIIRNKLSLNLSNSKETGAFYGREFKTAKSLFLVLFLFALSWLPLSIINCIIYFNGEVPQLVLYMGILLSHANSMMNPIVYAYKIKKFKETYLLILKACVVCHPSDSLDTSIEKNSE
quantity-name: pKi
In textbook form, pKi equals minus log to base ten of the concentration in mol/L.

Which pKi value belongs to CCn1c(=O)n(CC(C)C)c(=O)c2[nH]c(-c3cnn(Cc4cccc(F)c4)c3)nc21 ? 6.49

Which pKi value belongs to CC(C)Cn1c(=O)c2[nH]c(-c3cnn(Cc4cccc(F)c4)c3)nc2n(C)c1=O ? 6.97

Which pKi value belongs to CCn1c(=O)n(CC(C)C)c(=O)c2[nH]c(-c3cnn(Cc4ccc(C(F)(F)F)nc4)c3)nc21 ? 6.46
